assay.endpoint: melting point

compound	melting point
O=C1Nc2cc(-c3ccccc3)ccc2OC1CCO (stereo unspecified)	170 to 171 °C
Cc1ccc(S(=O)(=O)c2ncccc2NC(=O)N[C@@H](Cc2ccc(NC(=O)c3c(Cl)cccc3Cl)cc2)C(=O)O)cc1	180 °C
COc1cc2c3c(ccc(N)c3c1N)C(=O)N(O)C2=O	317 to 318 °C
CCCCc1c(-c2ncccc2C(=O)O)n(-c2ccccc2)n(-c2ccccc2)c1=O	139 to 141 °C
CN1CCN(C(=O)N2CC(Oc3ccc(Br)cc3)C2)CC1	91 to 95 °C
O=C(NCCCl)Sc1ncnc2nc[nH]c12	221 to 223 °C

Ask: Looking for the measured melting point of "CC(C)(C)NS(=O)(=O)c1csc2ccccc12" , can you help?
Result: 146 to 148 °C

Ask: Now consider "NNc1nc(Cl)nc2cccc(F)c12" and answer again.
Result: > 280 °C

Ask: Now consider OCc1ccc2c(c1)COC2c1ccc(F)cc1 (stereo unspecified) and answer again.
Result: 101 to 104 °C

Ask: Now consider "O=C1c2ccccc2C(=O)N1CCCCn1ccnc1" and answer again.
Result: 75 to 77 °C

Ask: Now consider COc1cc2c(cc1C)C1(CO2)C(=O)N(Cc2ccccn2)c2ccccc21 (stereo unspecified) and answer again.
Result: 142 to 144 °C

Ask: Now consider "OCc1nn(-c2ccccc2Cl)cc1-c1ccccc1" and answer again.
Result: 132 °C

Ask: Now consider CN[C@@H]1CN(C(=O)c2nn(C)c3ccccc23)C[C@@H]1C (relative stereo) and answer again.
Result: 89 to 91 °C

Ask: Now consider "O=C(NCc1cccs1)C1CCCCC1" and answer again.
Result: 105 °C

Ask: Now consider "CCCCCS(=O)(=O)NC(=O)/C=C/c1cc(OCC2CC2)nn1Cc1ccc(C(F)(F)F)cc1Cl" and answer again.
Result: 148 to 151 °C

Ask: Now consider "Cc1ccc([N+](=O)[O-])cc1S(=O)(=O)n1nnc2ccccc21" and answer again.
Result: 169 to 170 °C

Ask: Now consider CC(=O)C1CCC2C3CCC4CC(=O)CCC4(C)C3C(OC(=O)CCl)CC12C (stereo unspecified) and answer again.
Result: 133 to 135 °C
